# PROTOCOL_NOTES: chemical genetic growth profiling, strain panel (AID 1159580);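 also: tested at 20 µM; growth read once vehicle control cultures reached saturation at 30 °C; 1 = growth at the plate median or of vehicle wells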
# CONDITION_LABEL: S. cerevisiae deletion strains, growth OD, locus YOR184W, strain ser1, stronger effect = lower value
Screen size: about 5,500 compounds; about 2,000 (36%) were called active. Roughly 18% stayed inconclusive and do not appear here. The list shows a part of the results.
Recorded normalized growth by entry
Keep the answer to the number alone.

{"columns": ["COMPOUND", "normalized growth"],
 "data": [
  ["CCN(CC)CCOC(=O)C(c1ccccc1)c1ccccc1", 0.982],
  ["CCOC(=O)[C@H](CCc1ccccc1)N[C@@H](C)C(=O)N1Cc2ccccc2C[C@H]1C(=O)O", 1]
]}

Requested field: normalized growth. Item: NC(N)=O
0.992

What do we get for CC(=O)OCC(=O)[C@@]1(O)[C@H](OC(C)=O)CC2C3CCC4=CC(=O)C=C[C@]4(C)[C@@]3(F)[C@@H](O)C[C@@]21C (stereo partly specified) ?
0.986

What do we get for COC(=O)c1c(C)cc(OC(=O)c2c(C)c(Cl)c(O)c(C=O)c2O)c(C)c1O ?
0.976

What do we get for COc1cc(C)c(C(=O)Oc2cc(C)c(C(=O)O)c(O)c2C)c(OC)c1C ?
0.986

* * *

Recorded normalized growth by entry
# PROTOCOL_NOTES: chemical genetic growth profiling, strain panel (AID 1159580)
# CONDITION_LABEL: S. cerevisiae deletion strains, growth OD, locus YGL086W, strain mad1, stronger effect = lower value
Hit rate of the full screen: of about 5,500 compounds, about 2,000 (36%) were called active. About 18% were inconclusive and are not listed. Some of the results follow.
Keep the answer to the number alone.

{"columns": ["COMPOUND", "normalized growth"],
 "data": [
  ["C[C@H](CCC(=O)O)[C@H]1CCC2C3C(CC[C@@]21C)[C@@]1(C)CC[C@@H](O)C[C@H]1C[C@H]3O (stereo not given in full)", 1.03],
  ["C=C1C2=CC(=O)O[C@@H](c3ccoc3)[C@]2(C)CCC1[C@@]1(C)C=CC(=O)C(C)(C)[C@@H]1CC(=O)OC (stereo not given in full)", 0.999],
  ["Cc1nc2sccn2c(=O)c1CCN1CCC(=C(c2ccc(F)cc2)c2ccc(F)cc2)CC1", 0.808]
]}

Requested field: normalized growth. Item: COC(=O)CCC(=O)O[C@H]1CCC2(C)C(CCC3C2C(=O)[C@@H](O)C2(C)C3CC3OC4(CCC(C)CO4)[C@@H](C)C32)C1 (stereo not given in full)
1

What do we get for CNC(=O)Oc1ccc2c(c1)[C@]1(C)CCN(C)[C@@H]1N2C ?
0.999

* * *

# PROTOCOL_NOTES: chemical genetic growth profiling, strain panel (AID 1159580)
# CONDITION_LABEL: S. cerevisiae deletion strains, growth OD, locus YJL168C, strain set2, stronger effect = lower value
In all, about 5,500 compounds went through this assay and about 2,000 (36%) were called active. About 18% were inconclusive and are not listed. The list shows a part of the results.
TEST_READOUT: normalized growth
Keep the answer to the number alone.

Solved cases below.
{"columns": ["MOLECULE", "normalized growth"],
 "data": [
  ["NCC(CC(=O)O)c1ccc(Cl)cc1 (stereo not given)", 0.994],
  ["CN(C)CCOC(=O)C(c1ccccc1)C1(O)CCCC1 (stereo not given)", 1.01],
  ["C[C@@H](N)[C@@H](O)c1ccccc1", 1.01]
]}

Requested field: normalized growth. Item: CNC(=O)Oc1ccc2c(c1)[C@]1(C)CCN(C)[C@@H]1N2C
1.01

What do we get for Nc1ccncc1 ?
0.963

* * *

# PROTOCOL_NOTES: chemical genetic growth profiling, strain panel (AID 1159580);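 also: tested at 20 µM; growth read once vehicle control cultures reached saturation at 30 °C; 1 = growth at the plate median or of vehicle wells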
# CONDITION_LABEL: S. cerevisiae deletion strains, growth OD, locus YOL147C, strain pex11, stronger effect = lower value
The campaign covered roughly 5,500 compounds. About 2,000 (36%) were called active. Inconclusive results (about 18%) are left out. This is one part of the list.
TEST_READOUT: normalized growth

Solved cases below.
{"columns": ["COMPOUND", "normalized growth"],
 "data": [
  ["COC(=O)c1c(C)cc(OC(=O)c2c(C)cc(O)c(C=O)c2O)c(C)c1O", "1.04 (inactive)"],
  ["CNC(=O)Oc1ccc2c(c1)[C@]1(C)CCN(C)[C@@H]1N2C", "1 (inactive)"],
  ["CCC(=O)c1ccc2c(c1)N(CC(C)N(C)C)c1ccccc1S2 (stereo not drawn)", "1.01 (inactive)"],
  ["C[C@@H]1CC2C3C[C@H](F)C4=CC(=O)C=C[C@]4(C)[C@@]3(F)[C@@H](O)C[C@]2(C)[C@@]1(O)C(=O)COC(=O)C(C)(C)C (stereo partly drawn)", "1.01 (inactive)"],
  ["COc1cc(OC)c(OC)cc1C=O", "1 (inactive)"],
  ["CC1CC2C3CC(F)C4=CC(=O)C=CC4(C)C3(F)C(O)CC2(C)C1C(=O)COC(=O)C(C)(C)C (stereo not drawn)", "1.03 (inactive)"]
]}

Requested field: normalized growth. Item: CC(CN1c2ccccc2Sc2cccnc21)N(C)C (stereo not drawn)
0.991 (inactive)

What do we get for CC(CN(C)C)CN1c2ccccc2CCc2ccccc21 (stereo not drawn) ?
1.02 (inactive)

* * *

# PROTOCOL_NOTES: chemical genetic growth profiling, strain panel (AID 1159580);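 also: tested at 20 µM; growth read once vehicle control cultures reached saturation at 30 °C; 1 = growth at the plate median or of vehicle wells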
# CONDITION_LABEL: S. cerevisiae deletion strains, growth OD, locus YBL061C, strain skt5, stronger effect = lower value
The campaign covered roughly 5,500 compounds. About 2,000 (36%) were called active. Inconclusive results (about 18%) are left out. Some of the results follow.
TEST_READOUT: normalized growth
Keep the answer to the number alone.

Solved cases below.
{"columns": ["MOLECULE", "normalized growth"],
 "data": [
  ["CCN(CC)C(C)CN1c2ccccc2Sc2ccccc21 (stereo unspecified)", 0.909],
  ["COc1cc(S(C)=O)ccc1-c1nc2ncccc2[nH]1 (stereo unspecified)", 0.984],
  ["N[C@@H]1[C@@H](O)[C@H](O)[C@@H](CO)O[C@H]1O", 1.03],
  ["CN(C)CCOC(=O)C(c1ccccc1)C1(O)CCCC1 (stereo unspecified)", 0.995],
  ["N#C/C(=C\\c1cccc(O)c1)C(=O)O", 0.976]
]}

Requested field: normalized growth. Item: CC(=O)O[C@H]1C[C@@H](OC(C)=O)C(C)(C)C2CC(=O)[C@]3(C)C(CC[C@@]4(C)[C@H](c5ccoc5)OC(=O)[C@H]5O[C@]543)[C@]21C (stereo partly specified)
0.993

What do we get for CN(C)C(=O)Nc1ccc(Cl)c(Cl)c1 ?
0.991

What do we get for CN(C(=O)CN(CCO)CC(=O)N(C)C(C)(C)Cc1ccccc1)C(C)(C)Cc1ccccc1 ?
1.01

What do we get for N[C@H](Cc1cc(I)c(Oc2ccc(O)c(I)c2)c(I)c1)C(=O)O ?
0.994

What do we get for CC(=O)Nc1ccccc1 ?
0.962

What do we get for NC(Cc1ccc(F)cc1)C(=O)O (stereo unspecified) ?
1.03

* * *

# PROTOCOL_NOTES: chemical genetic growth profiling, strain panel (AID 1159580);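 also: tested at 20 µM; growth read once vehicle control cultures reached saturation at 30 °C; 1 = growth at the plate median or of vehicle wells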
# CONDITION_LABEL: S. cerevisiae deletion strains, growth OD, locus YNL322C, strain KRE1 (second series)
Screen size: about 5,500 compounds; about 2,000 (36%) were called active. Another 18% or so got no clear call; they are omitted. No stated cut-off is given here; in the data, active means normalized growth mostly below about 0.91 (no sharp cut-off); inconclusive means no clear call, values can overlap the other calls; inactive means mostly above about 0.92. Some of the results follow.
Give your call using only these classes: active, inactive

{"columns": ["COMPOUND", "ASSIGNED_CLASS"],
 "data": [
  ["COc1c2ccoc2nc2c(OC)c(OCC(O)C(C)(C)O)ccc12 (centres undefined)", "inactive"],
  ["C=C1[C@H]2CC[C@@]3(C)[C@H](c4ccoc4)OC(=O)C[C@]13O[C@H]1C[C@H](O)C(C)(C)[C@H](CC(=O)OC)[C@]12C", "inactive"],
  ["O=C(O)CCCOc1ccc(Cl)cc1Cl", "active"],
  ["COc1c(Cl)ccc(Cl)c1C(=O)O", "inactive"],
  ["COC(=O)CCC(C)[C@H]1CCC2C3C(C[C@H](O)[C@@]21C)[C@@]1(C)CC[C@@H](O)C[C@H]1C[C@H]3O (some centres undefined)", "inactive"]
]}

Test call, this compound: C=C1C(C2(C)C=CC(=O)C(C)(C)C2CC(=O)OC)CC[C@@]2(C)[C@H](c3ccoc3)OC(=O)C3OC132 (some centres undefined)
inactive

What do we get for NCC(CC(=O)O)c1ccc(Cl)cc1 (centres undefined) ?
inactive

What do we get for CC(=O)N=c1sc(S(N)(=O)=O)nn1C ?
inactive

What do we get for CCCC(C(=O)OCCN(CC)CC)(c1ccccc1)c1ccccc1 ?
inactive

What do we get for CSc1ccc2c(c1)N(CCC1CCCCN1C)c1ccccc1S2 (centres undefined) ?
inactive
